Assay: RP, Agilent ZORBAX Eclipse XDB-C8, 150 × 4.6 mm, 3.5 µm, 25 °C, 0.6 mL/min, estimated dead time 2.6 min; A: water + 0.1% formic acid; B: acetonitrile + 0.1% formic acid; gradient (min/%B) 0/10 5/10 30/100
Conditions: stereoisomer not certain
METRIC_NAME: LC retention time (min)
Write the value in min as a bare number.

Per the record, "COc1cc(NS(=O)(=O)c2ccc(N)cc2)nc(OC)n1" has LC retention time of 16.5

For this compound ( COc1ccc(C2Sc3ccccc3N(CCN(C)C)C(=O)C2OC(C)=O)cc1 (centres undefined) ), measured LC retention time is 15.2

// field: LC retention time; key: "Cc1ccnc(NS(=O)(=O)c2ccc(N)cc2)n1" ; value = 11.5

# compound CCC1OC(=O)C(C)C(OC2CC(C)(OC)C(O)C(C)O2)C(C)C(OC2OC(C)CC(N(C)C)C2O)C(C)(OC)CC(C)C(=O)C(C)C(O)C1(C)O (centres undefined) ; its LC retention time = 16

For CC1(C)SC2C(NC(=O)Cc3ccccc3)C(=O)N2C1C(=O)O (centres undefined) the compound record lists LC retention time as 16.9

For record "Cc1cc(NS(=O)(=O)c2ccc(N)cc2)no1" the listed LC retention time is 15.3

compound CCC(=O)C(CC(C)N(C)C)(c1ccccc1)c1ccccc1 (centres undefined) , LC retention time observed: 16.6

The value of LC retention time measured for the compound CC1OC(OC2C(O)CC(OC3C(O)CC(OC4CCC5(C)C(CCC6C5CC(O)C5(C)C(C7=CC(=O)OC7)CCC65O)C4)OC3C)OC2C)CC(O)C1O (centres undefined) turned out to be 15.2

LC retention time reading for "Cc1cc(C)nc(NS(=O)(=O)c2ccc(N)cc2)n1" : 12.4

* * *

Experiment: RP, Agilent ZORBAX Eclipse XDB-C8, 150 × 4.6 mm, 3.5 µm, 25 °C, 0.6 mL/min, estimated dead time 2.6 min; A: water + 0.1% formic acid; B: acetonitrile + 0.1% formic acid; gradient (min/%B) 0/10 5/10 30/100
Settings: stereoisomer not certain
Exercise: state measured LC retention time for each of the compounds provided.
Return type: number; implicit unit min.

The compound listed as "CCn1cc(C(=O)O)c(=O)c2cc3c(cc21)OCO3" has a reported LC retention time of 15.4

Record CCC1OC(=O)C(C)C(OC2CC(C)(OC)C(O)C(C)O2)C(C)C(OC2OC(C)CC(N(C)C)C2O)C(C)(O)CC(C)CN(C)C(C)C(O)C1(C)O (stereo unspecified) , field LC retention time: 12.2

Data point: "Cn1c(=O)[nH]c2ncn(C)c2c1=O" ; LC retention time = 6.3

Form: compound = "CN=C(NC#N)NCCSCc1nc[nH]c1C" ; LC retention time = 4.3

Given item CN1C(=O)CCC1c1cccnc1 (stereo unspecified) , the value recorded as its LC retention time is 3.2

Input CC1=CC(O)CC(=O)Cc2nc(co2)C(=O)N2CCC=C2C(=O)OC(C(C)C)C(C)C=CC(=O)NCC=C1.CCC1NC(=O)C(NC(=O)c2ncccc2O)C(C)OC(=O)C(c2ccccc2)NC(=O)C2CC(=O)CCN2C(=O)C(Cc2ccccc2)N(C)C(=O)C2CCCN2C1=O (stereo unspecified) . Output LC retention time: 18.4
